Source listed as patent US8232284B2.

system tested: recombinant human liver GK (Homo sapiens, UniProt P35557)
Construct: made in house; host or cells: E. coli
Sequence (P35557 1-466 isoform P35557-2): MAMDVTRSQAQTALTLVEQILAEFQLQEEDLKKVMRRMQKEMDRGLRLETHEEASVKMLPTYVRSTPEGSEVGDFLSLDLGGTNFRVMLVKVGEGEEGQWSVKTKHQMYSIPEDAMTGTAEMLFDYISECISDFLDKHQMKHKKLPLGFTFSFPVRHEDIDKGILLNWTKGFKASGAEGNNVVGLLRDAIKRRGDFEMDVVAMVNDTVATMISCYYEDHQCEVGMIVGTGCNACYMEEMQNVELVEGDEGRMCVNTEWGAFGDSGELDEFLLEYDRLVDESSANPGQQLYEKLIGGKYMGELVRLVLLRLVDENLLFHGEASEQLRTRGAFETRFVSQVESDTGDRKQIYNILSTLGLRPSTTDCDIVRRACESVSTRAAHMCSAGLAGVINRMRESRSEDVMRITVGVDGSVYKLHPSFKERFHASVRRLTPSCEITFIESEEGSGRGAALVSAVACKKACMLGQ
assay procedure: Glucokinase-activating effect (Thio-NADH coupled assay with G6PDH, 2.5 mM glucose)
Format: biochemical
test context: final glucose concentration 2.5 mM; 30° C.; read-out: EC50
Where a name gives a salt, the structure may show the parent alone.
recorded endpoint: EC50 (µM)

a: CC(C)NCCOc1ccc(Oc2ccc3ncnc(Nc4ccn(C)n4)c3c2)nc1
b: Cc1cnc(Nc2ncnc3ccc(Oc4ncc(OCCN(C)C)cc4C)cc23)cn1 [Example 34, hydrochloride]
Req: Dear colleague, could you let me know whether a or b has the lower recorded EC50? Thanks. Label of pick, please.
Resp: b
(b: 0.07 µM, a: 0.26 µM)

P: CN(C)CCOc1cnc(Oc2ccc3ncnc(Nc4cnccn4)c3c2)c(Cl)c1
Q: Cc1cnc(Nc2ncnc3ccc(Oc4ncc(OCCN(C)C)cc4Cl)cc23)cn1
R: Cc1cc(OCCO)cnc1Oc1ccc2ncnc(Nc3cnn(C)n3)c2c1
Req: List by increasing EC50. Dear reader, please state the labels in the requested order.
Resp: R, Q, P
(R: 0.04 µM, Q: 0.1 µM, P: 0.26 µM)

a: CN(C)CCOc1cnc(Oc2ccc3ncnc(Nc4ccn(C)n4)c3c2)nc1
b: CN(C)CCCOc1ccc(Oc2ccc3ncnc(Nc4ccn(C)n4)c3c2)nc1
Req: Dear colleague, could you let me know whether a or b has the lower recorded EC50? Thanks. Label of pick, please.
Resp: b
(b: 0.38 µM, a: 1.32 µM)

a: CCN1CC(Oc2cnc(Oc3ccc4ncnc(Nc5ccn(C)n5)c4c3)c(F)c2)C1 [Example 25, hydrochloride]
b: Cc1cnc(Nc2ncnc3ccc(Oc4ncc(OCCNC(C)C)cc4F)cc23)cn1 [Example 40, hydrochloride]
c: CN(C)CCOc1ncc(Oc2ccc3ncnc(Nc4ccn(C)n4)c3c2)cn1
d: CNCCOc1cnc(Oc2ccc3ncnc(Nc4ccn(C)n4)c3c2)c(C)c1 [Example 70, hydrochloride]
e: COc1ccc2nc(Nc3ncnc4ccc(Oc5ncc(OCCN(C)C)cc5Cl)cc34)sc2n1
Req: List by increasing EC50. Dear reader, please state the labels in the requested order.
Resp: d, e, a, b, c
(d: 0.026 µM, e: 0.11 µM, a: 0.23 µM, b: 0.35 µM, c: 6.93 µM)

1: Cc1cnc(Nc2ncnc3ccc(Oc4ccc(OCCNC(C)C)cn4)cc23)cn1
2: CN(C)CCCN(C)S(=O)(=O)c1cnc(Oc2ccc3ncnc(Nc4ccn(C)n4)c3c2)c(Cl)c1
3: CC(C)NCCOc1ccc(Oc2ccc3ncnc(Nc4cnn(C)n4)c3c2)nc1 [Example 76, hydrochloride]
Req: Arrange the 3 compounds from largest to smallest EC50. Dear reader, please state the labels in the requested order.
Resp: 2, 1, 3

1: CN(C)CCOc1cnc(Cl)c(Oc2ccc3ncnc(Nc4ccn(C)n4)c3c2)c1
2: CCNCCCOc1cnc(Oc2ccc3ncnc(Nc4ccn(C)n4)c3c2)c(Cl)c1 [Example 20, hydrochloride]
3: CN(C)CCOc1cnc(Oc2ccc3ncnc(Nc4ccn(C)n4)c3c2)c(Cl)c1
Req: Arrange the 3 compounds from largest to smallest EC50. Dear reader, please state the labels in the requested order.
Resp: 1, 3, 2
(1: 0.42 µM, 3: 0.08 µM, 2: 0.04 µM)

P: CN(C)CCN(C)C(=O)c1cnc(Oc2ccc3ncnc(Nc4ccn(C)n4)c3c2)c(Cl)c1
Q: Cc1cc(OCCNC(C)C)cnc1Oc1ccc2ncnc(Nc3cnn(C)n3)c2c1 [Example 81, hydrochloride]
Req: Dear colleague, could you let me know whether P or Q has the lower recorded EC50? Thanks. Label of pick, please.
Resp: Q
(Q: 0.013 µM, P: 0.41 µM)

A: Cc1nsc(Nc2ncnc3ccc(Oc4ccc(OCCN(C)C)cn4)cc23)n1
B: CN(C)CCN(C)C(=O)c1ccnc(Oc2ccc3ncnc(Nc4ccn(C)n4)c3c2)c1Cl
Req: Return label of the item with the larger EC50. Candidates: A , B . Label of pick, please.
Resp: B
(B: 6.09 µM, A: 0.29 µM)

====

system tested: recombinant human liver GK (Homo sapiens)
Construct: made in house; host or cells: E. coli
assay procedure: Glucokinase-activating effect (Thio-NADH coupled assay with G6PDH, 2.5 mM glucose)
Assay type: biochemical
test context: OD level of DMSO control set as 100%; final glucose concentration 2.5 mM; 30° C.
Description: The excellent glucokinase-activating effect of the compounds of the formula (I) may be determined by a method described in literature (for example, Diabetes, Vol. 45, pp. 1671-1677, 1996), or in accordance with it. […] After the start of the reaction, the increase in the absorbance at 405 nm was measured for 12 minutes at intervals of 30 seconds, and the increase for the first 5 minutes was used for assessing the compound tested. […]
Where a name gives a salt, the structure may show the parent alone.
recorded endpoint: Emax (%)

compound: Cc1cnc(Nc2ncnc3ccc(Oc4ncc(OCCCO)cc4Cl)cc23)cn1 [Example 61]
Emax / %: 888

compound: CN(C)CCOc1ncc(Oc2ccc3ncnc(Nc4ccn(C)n4)c3c2)cn1 [Example 7]
Emax / %: 695

compound: CNCCOc1cnc(Oc2ccc3ncnc(Nc4ccn(C)n4)c3c2)c(C)c1 [Example 70, hydrochloride]
Emax / %: 979

P: CN(C)CCOc1ccc(Oc2ccc3ncnc(Nc4ccn(C)n4)c3c2)cn1 [Example 3]
Q: CN(C)CCN(C)C(=O)c1ccnc(Oc2ccc3ncnc(Nc4ccn(C)n4)c3c2)c1Cl [Example 67]
Req: Dear colleague, could you let me know whether P or Q has the lower recorded Emax? Thanks. Label of pick, please.
Resp: Q

====

system tested: recombinant human liver GK (Homo sapiens)
Construct: made in house; host or cells: E. coli
assay procedure: Glucokinase-activating effect (Thio-NADH coupled assay with G6PDH, 2.5 mM glucose)
Type: biochemical
test context: comparative test in vitro, similar to pharmacological experiment 1; read-out: GK activity EC50
recorded endpoint: EC50 (nM)

molecule: CNCCOc1cnc(Oc2ccc3ncnc(Nc4cnc(C)cn4)c3c2)c(Cl)c1.Cl [Example 32, hydrochloride]
measured value: 40

I: CCNCCOc1cnc(Oc2ccc3ncnc(Nc4ccn(C)n4)c3c2)c(Cl)c1.Cl [Example 18, hydrochloride]
II: Cc1cnc(Nc2ncnc3ccc(Oc4ccc(OCCN(C)C)cn4)cc23)cn1
Req: Return label of the item with the larger EC50. Candidates: I , II . Label of pick, please.
Resp: II
(II: 440 nM, I: 30 nM)

====

system tested: recombinant human liver GK (Homo sapiens, UniProt P35557)
Construct: made in house; host or cells: E. coli
assay procedure: Glucokinase-activating effect (Thio-NADH coupled assay with G6PDH, 2.5 mM glucose)
Type: biochemical
test context: final glucose concentration 2.5 mM; 30° C.; read-out: EC50
pEC50: −log10 of the molar value. Counter-ions that a name gives are not always drawn.
recorded endpoint: pEC50

compound: Cn1ccc(Nc2ncnc3ccc(Oc4ncc(OCCO)cc4F)cc23)n1
measured value: 6.44
//
compound: Cc1cnc(Nc2ncnc3ccc(Oc4ncc(OCCO)cc4Cl)cc23)cn1
measured value: 6.70

P: Cn1ccc(Nc2ncnc3ccc(Oc4ncc(OC5CNC5)cc4Cl)cc23)n1 [Example 23, hydrochloride]
Q: Cc1cnc(Nc2ncnc3ccc(Oc4ncc(OCCCO)cc4Cl)cc23)cn1
Req: Dear colleague, could you let me know whether P or Q has the lower recorded pEC50? Thanks. Label of pick, please.
Resp: Q
